Target: EGFR (L858R T790M C797S) (Homo sapiens, UniProt P00533, C797S/L858R/T790M)
Sequence (P00533 25-1210 T790M/C797S/L858R): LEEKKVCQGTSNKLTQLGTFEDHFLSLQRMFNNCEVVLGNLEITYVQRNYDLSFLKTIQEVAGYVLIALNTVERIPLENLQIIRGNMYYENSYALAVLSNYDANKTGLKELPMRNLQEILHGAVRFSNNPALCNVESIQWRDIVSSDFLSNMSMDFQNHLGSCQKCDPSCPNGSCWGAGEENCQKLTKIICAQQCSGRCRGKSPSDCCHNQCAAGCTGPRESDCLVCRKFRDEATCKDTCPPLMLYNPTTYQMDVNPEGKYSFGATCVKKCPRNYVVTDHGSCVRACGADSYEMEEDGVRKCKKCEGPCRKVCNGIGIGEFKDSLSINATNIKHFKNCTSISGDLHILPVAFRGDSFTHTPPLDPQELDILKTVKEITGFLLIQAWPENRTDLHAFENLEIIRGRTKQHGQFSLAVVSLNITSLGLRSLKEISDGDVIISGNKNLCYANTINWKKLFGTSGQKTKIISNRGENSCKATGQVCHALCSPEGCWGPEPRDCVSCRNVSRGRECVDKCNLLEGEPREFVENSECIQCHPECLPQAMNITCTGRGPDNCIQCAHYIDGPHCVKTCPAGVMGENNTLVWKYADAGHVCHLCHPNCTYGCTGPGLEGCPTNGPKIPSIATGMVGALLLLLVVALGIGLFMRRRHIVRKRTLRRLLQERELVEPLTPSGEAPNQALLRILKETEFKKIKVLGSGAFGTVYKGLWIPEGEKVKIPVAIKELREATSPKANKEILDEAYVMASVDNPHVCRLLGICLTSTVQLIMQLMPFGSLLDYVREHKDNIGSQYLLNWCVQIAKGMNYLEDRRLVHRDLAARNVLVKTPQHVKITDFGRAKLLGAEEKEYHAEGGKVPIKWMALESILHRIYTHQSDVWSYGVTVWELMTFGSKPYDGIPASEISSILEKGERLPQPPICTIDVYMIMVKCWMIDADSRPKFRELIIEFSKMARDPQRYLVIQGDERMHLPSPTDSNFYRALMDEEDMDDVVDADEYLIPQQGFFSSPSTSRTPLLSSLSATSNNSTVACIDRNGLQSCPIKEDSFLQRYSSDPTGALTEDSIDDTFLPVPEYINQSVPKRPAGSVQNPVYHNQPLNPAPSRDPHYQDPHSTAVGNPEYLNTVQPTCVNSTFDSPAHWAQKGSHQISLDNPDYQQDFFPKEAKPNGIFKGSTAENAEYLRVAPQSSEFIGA
Assay: Biochemical EGFR inhibition assay (Caliper mobility shift), EGFR LRTMCS mutant
Conditions: inhibitory activity against EGFR LRTMCS mutant; apparent IC50; read-out: Ext Enz LRTMCS
Method: Reactions proceeded until between 10% to 20% total peptides were phosphorylated at room temperature (25° C.) and were terminated with 35 mM 2,2′,2″,2′″-(ethane-1,2-diyldinitrilo)tetraacetic acid (EDTA). Product was detected using the Caliper mobility shift detection method where the phosphorylated peptide (product) and substrate were electrophoretically separated and measured. Percent activity was plotted against log concentration of compound and points to generate an apparent IC50.
# reported IC50; entries follow
property label: IC50

compound=[2H]C([2H])([2H])OC1CCN(c2nccc(Nc3cc4c(C(C)C)ccc(N5C[C@H](CS(C)(=O)=O)[C@H]5C)c4cn3)n2)CC1 tested_target="EGFR (L858R T790M C797S) (Homo sapiens, UniProt P00533, C797S/L858R/T790M)" property_label=IC50 value_measured="15.1 to 20 nM"
compound="CO[C@H]1CCN(c2nccc(Nc3cc4c(C(C)C)ccc(N5C[C@H](CS(C)(=O)=O)[C@H]5C)c4cn3)n2)C[C@H]1C#N (single isomer, unassigned) [Compound 164]" tested_target="EGFR (L858R T790M C797S) (Homo sapiens, UniProt P00533, C797S/L858R/T790M)" property_label=IC50 value_measured="15.1 to 20 nM"
compound=CC(C)c1cnc(N2C[C@H](CS(C)(=O)=O)[C@H]2C)c2cnc(Nc3ccnc(N4CC[C@H](OCC(C)(C)O)[C@H](F)C4)n3)cc12 tested_target="EGFR (L858R T790M C797S) (Homo sapiens, UniProt P00533, C797S/L858R/T790M)" property_label=IC50 value_measured="≤ 15 nM"
compound="CO[C@@H]1CCN(c2nccc(Nc3cc4c(C(C)C)ccc(N5C[C@H](CS(C)(=O)=O)[C@H]5C)c4cn3)n2)C[C@H]1C#N (single isomer, unassigned)" tested_target="EGFR (L858R T790M C797S) (Homo sapiens, UniProt P00533, C797S/L858R/T790M)" property_label=IC50 value_measured="30.1 to 100 nM"
compound="C[C@H](CO)c1ccc(N2CC(CS(C)(=O)=O)C2)c2cnc(Nc3ccnc(N4CCC5(CCO5)CC4)n3)cc12 (single isomer, unassigned)" tested_target="EGFR (L858R T790M C797S) (Homo sapiens, UniProt P00533, C797S/L858R/T790M)" property_label=IC50 value_measured="≤ 15 nM"
